system: LXRβ (Homo sapiens)
Sequence (P55055 222-460 limits assumed): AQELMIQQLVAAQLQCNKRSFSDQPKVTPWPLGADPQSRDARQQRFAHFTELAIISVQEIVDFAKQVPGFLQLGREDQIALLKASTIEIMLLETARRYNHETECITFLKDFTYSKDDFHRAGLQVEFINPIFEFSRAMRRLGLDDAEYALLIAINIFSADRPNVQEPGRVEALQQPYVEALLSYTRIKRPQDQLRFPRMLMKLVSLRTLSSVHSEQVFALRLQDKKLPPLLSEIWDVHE
runDescription: SMRT2 corepressor binding to LXRβ, CRT
Format: biochemical
Parameters: The CRT selectivity assay incorporates GST-tagged LXR-LBD; purchased Thermo Fisher Scientific PV4660
testContext: ligand 1 µM, interpolated from concentration-response, normalized; heat map Figure 9A; read-out: SMRT2β, relative % activity at 1 μM
Reported activity at 1 µM values for a set of compounds
Give the quantity in %, number only.

Below, 6 compounds whose answers are already recorded.
compound | measurementUnits | activity at 1 µM
CC(C)[C@@](O)(C(=O)N1CCC(C2CCN(c3ccc(C(=O)N(C)C)c(Cl)c3)CC2)CC1)C(F)(F)F | % | 87.9
CC(C)(O)c1cn(-c2ccc(-c3cccc(S(C)(=O)=O)c3)cc2)c(C(C)(C)c2ccccc2Cl)n1 | % | 102
CCOC(=O)c1cc(Cl)cc(NC(=O)c2sc(Cl)cc2S(=O)(=O)N(C)c2ccc(OCC)c(OC)c2)c1 | % | 88.6
CCOC(=O)c1cccc(NC(=O)c2sc(Cl)cc2S(=O)(=O)N(C)c2ccc(OCC)c(OCC)c2)c1 | % | 99.4
CC(C)(O)c1cn(-c2ccc(-c3cc(F)c(CO)c(S(C)(=O)=O)c3)cc2F)c(C(C)(C)c2c(Cl)cccc2Cl)n1 | % | 153
O=S(=O)(c1ccccc1)N(CC(F)(F)F)c1ccc(C(O)(C(F)(F)F)C(F)(F)F)cc1 | % | 85

Look at this compound and give its reported activity at 1 µM. `CCOC(=O)Cn1nc(C(F)(F)F)cc1-c1ccc(-c2cccc(S(C)(=O)=O)c2)cc1` 91.1

Then `C[C@H](CCOc1cccc(CC(=O)O)c1)N(Cc1cccc(C(F)(F)F)c1Cl)CC(c1ccccc1)c1ccccc1` ? 82

These measurements were taken from paper PMC13286573.
